- Species on record: Mus musculus
- ASSAY_METHOD_TEXT: Relative Analgesic activity of compound to the N-methyl homologue assayed by the mouse hotplate method
- Type: functional
Would you kindly list Relative activity for each of these compounds?
Give bare numbers.

Cc1[nH]c(C)c(C(=O)OC2CCN(CCc3ccccc3)CC2)c1C ... 0.3
Cc1[nH]c(C)c(C(=O)OC2CCN(C)CC2)c1C ... 1

Return reported Relative activity values for all items listed beneath this line.
1. CN1CCC23c4c5ccc(O)c4O[C@H]2[C@@H](O)C=CC3(CC5)C1 (some centres undefined)
2. Oc1ccc2c3c1O[C@H]1[C@@H](O)C=CC4(CC2)CN(CCc2ccccc2)CCC314 (some centres undefined)

Marked response:
[1, 6]

Return reported Relative activity values for all items listed beneath this line.
1. CCOC(=O)C1(c2ccccc2)CCN(C)CC1 [MEPERIDINE]
2. CCN1CCC(OC(=O)c2c(C)[nH]c(C)c2C)CC1
3. Cc1[nH]c(C)c(C(=O)OC2CCN(Cc3ccccc3)CC2)c1C

Marked response:
1. 1
2. 0.5
3. 0.8

Source of measurements: ChEMBL document CHEMBL1122005
